System: E21 (patient-derived glioblastoma stem cells of mesenchymal subtype)
Assay: surviving fraction (nuclei count normalised to DMSO); higher = more cells surviving (less toxic)
Conditions: 12.3 nM; exposure time: 72 h
assayMetric: surviving fraction
Give the value as a plain number.

OC[C@H]1O[C@@H](Oc2ccc(O)cc2)[C@H](O)[C@@H](O)[C@@H]1O [Arbutin]    0.989

## Task Please look up its surviving fraction: "CC[n+]1c(/C=C/C=C2/N(C)c3ccccc3C2(C)C)sc2ccccc21"
## Result 0.825

## Task Looking for the measured surviving fraction of Nc1ccn([C@@H]2O[C@H](CO)[C@@H](O)[C@@H]2O)c(=O)n1 [Cytarabine] , can you help?
## Result 0.77

## Task // lookup surviving fraction for CC(C)(Oc1ccc(C2CC2(Cl)Cl)cc1)C(=O)O (configuration not stated) [Ciprofibrate]
## Result 0.945

====

Reported surviving fraction is given for each of the following molecules.
Test system: E28 (patient-derived glioblastoma stem cells of classical subtype)
Assay: surviving fraction (nuclei count normalised to DMSO); higher = more cells surviving (less toxic)
Conditions: 111.1 nM; exposure time: 72 h
Field format: numeric only.

Example results:
CCn1cc(-c2ccnc3[nH]c(-c4cccc(CN(C)C)c4)cc23)c(-c2ccc(NC(=O)N(C)C)cc2)n1    0.556
CO[C@H]1C(=O)[C@]2(C)[C@@H](OC)C[C@H]3OC[C@@]3(OC(C)=O)[C@H]2[C@H](OC(=O)c2ccccc2)[C@]2(O)C[C@H](OC(=O)[C@H](O)[C@@H](NC(=O)OC(C)(C)C)c3ccccc3)C(C)=C1C2(C)C    0.301

// below: surviving fraction requested for another molecule
## Task Would you kindly share the measured surviving fraction for "OCCN1CCN(CCCN2c3ccccc3Sc3ccc(Cl)cc32)CC1" ?
## Result 1.19

====

Test system: E34 (patient-derived glioblastoma stem cells of proneural subtype)
Test: phenotypic distance (Euclidean, principal components) from DMSO controls (arbitrary units); higher = stronger morphological change
Settings: 37.037 nM; exposure time: 72 h
Label scheme for phenotypic distance: lower than 0.6 is not met, 0.6 and above is met.

CC(C)(C)CC(C)(C)c1ccc(OCCOCC[N+](C)(C)Cc2ccccc2)cc1 [Benzethonium chloride]    met
OCCN1C[C@H](O)[C@@H](O)[C@H](O)[C@H]1CO    met
COC(=O)Nc1nc2cc(C(=O)c3cccs3)ccc2[nH]1    met
CC(C)C[C@H](NC(=O)[C@H](Cc1ccccc1)NC(=O)c1cnccn1)B(O)O    met

We next turn to a different compound, shown below.
## Task Does the compound "CC(C)C[C@H](NC(=O)[C@H](Cc1ccccc1)C[C@@H](O)[C@H](Cc1ccccc1)NC(=O)OC(C)(C)C)C(=O)N[C@@H](Cc1ccccc1)C(N)=O" have recorded phenotypic distance that is 0.6 or more?
## Result not met

====

System: E13 (patient-derived glioblastoma stem cells of classical subtype)
Experiment: phenotypic distance (Euclidean, principal components) from DMSO controls (arbitrary units); higher = stronger morphological change
Details: 111.1 nM; exposure time: 72 h
Counter-ions that a name gives are not always drawn.
assayMetric: phenotypic distance
Number, no unit, nothing else.

CSc1ccc2c(c1)N(CCC1CCCCN1C)c1ccccc1S2 (centres undefined) [Thioridazine hydrochloride]    3.1
O=C(/C=C/c1cccnc1)NCCCCC1CCN(C(=O)c2ccccc2)CC1    2.19
CC(C)C[C@H](NC(=O)CNC(=O)c1cc(Cl)ccc1Cl)B(O)O    10.6

Okay, next one:
## Task // returns reported phenotypic distance for input "Cc1[nH]nc(C(F)(F)F)c1Cc1sc2c(c1C(=O)N1C[C@](C)(O)CO1)c(=O)n(C)c(=O)n2C(C)C"
## Result 1.14

====

Test system: FT3469 (normal neural stem cell line)
Experiment: phenotypic distance (Euclidean, principal components) from DMSO controls (arbitrary units); higher = stronger morphological change
Conditions: 4.1 nM; exposure time: 72 h
Counter-ions that a name gives are not always drawn.
phenotypic distance of 1 or higher: Y. Under 1: N.

COc1ccc2[nH]c([S+]([O-])Cc3ncc(C)c(OC)c3C)nc2c1 (configuration not stated) [Omeprazole]    N
O=C1CCc2cc(OCCCCc3nnnn3C3CCCCC3)ccc2N1 [Cilostazol]    N
Cc1cc(Nc2cc(CN3CCOCC3)c3nc(C)c(Cc4ccc(Cl)cc4F)n3n2)n[nH]1 [Gandotinib]    N
CCCSc1ccc2[nH]c(NC(=O)OC)nc2c1 [Albendazole]    N
CO[C@H]1C(=O)[C@]2(C)[C@@H](OC)C[C@H]3OC[C@@]3(OC(C)=O)[C@H]2[C@H](OC(=O)c2ccccc2)[C@]2(O)C[C@H](OC(=O)[C@H](O)[C@@H](NC(=O)OC(C)(C)C)c3ccccc3)C(C)=C1C2(C)C [Cabazitaxel]    Y

## Task Hi team, for O=C(/C=C/c1cccnc1)NCCCCC1CCN(C(=O)c2ccccc2)CC1 [Daporinad] , is the recorded phenotypic distance at or above 1?
## Result Y

## Task // inclusive: phenotypic distance at least 1? input: CC[N+](CC)(CC)CCOc1ccc(/C=C/c2ccccc2)cc1 [MG 624]
## Result N

## Task Could you verify whether the entry "COc1cc2c(cc1-c1c(C)noc1C)ncc1[nH]c(=O)n([C@H](C)c3ccccn3)c12" shows phenotypic distance of no less than 1?
## Result Y

## Task I'd appreciate it if you could say whether Cc1c2ccncc2c(C)c2c1[nH]c1ccccc12 [Ellipticine] has phenotypic distance at least equal to 1.
## Result Y

## Task Decide: phenotypic distance of Oc1c(Cl)cc(Cl)c(Cl)c1Cc1c(O)c(Cl)cc(Cl)c1Cl [Hexachlorophene] >= 1?
## Result N

## Task Answer whether phenotypic distance of Cc1ncc(CO)c(CO)c1O [Pyridoxine hydrochloride] is greater than or equal to 1.
## Result N

## Task Please check the record CC(=O)OC[C@H]1O[C@@H]([S-])[C@H](OC(C)=O)[C@@H](OC(C)=O)[C@@H]1OC(C)=O.CCP(CC)CC.[Au+] [Auranofin] and state if its phenotypic distance is at or above 1.
## Result N

## Task Item COc1ccc(C(=O)CC(=O)c2ccc(C(C)(C)C)cc2)cc1 [Avobenzone] with phenotypic distance of 1 or above?
## Result N

## Task Determine whether this compound has phenotypic distance no lower than 1: Nc1nc(=O)c2nc(CNc3ccc(C(=O)N[C@@H](CCC(=O)O)C(=O)O)cc3)cnc2[nH]1 [Folic acid]
## Result N

## Task Check this compound for phenotypic distance at or above 1: CC(=O)[C@]1(O)Cc2c(O)c3c(c(O)c2[C@@H](O[C@H]2C[C@H](N)[C@H](O)[C@H](C)O2)C1)C(=O)c1ccccc1C3=O [Idarubicin]
## Result Y

## Task Please tell me: is the compound CNc1ccc2oc(C[C@H]3O[C@@]4(CC[C@H]3C)O[C@H]([C@H](C)C(=O)c3ccc[nH]3)[C@H](C)C[C@H]4C)nc2c1C(=O)O [Calcimycin] at or over 1 in terms of phenotypic distance?
## Result Y

## Task I'd appreciate it if you could say whether COc1cc2c(c(OC)c1OC)-c1ccc(OC)c(=O)cc1[C@@H](NC(C)=O)CC2 [Colchicine] has phenotypic distance at least equal to 1.
## Result Y

## Task Please tell me: is the compound CC(NCCC(c1ccccc1)c1ccccc1)c1ccccc1 (configuration not stated) [Fendiline hydrochloride] at or over 1 in terms of phenotypic distance?
## Result N

====

Tested on: E28
Assay: surviving fraction (nuclei count normalised to DMSO); higher = more cells surviving (less toxic)
Conditions: 3000 nM; exposure time: 72 h
Where a name gives a salt, the structure may show the parent alone.
This listing pairs compounds with measured surviving fraction.
Enter a number only.

## Task Record lookup: for E28, what surviving fraction belongs to "COc1cc(NS(C)(=O)=O)ccc1Nc1c2ccccc2nc2ccccc12" ?
## Result 0.126

## Task # value lookup — system E28, readout surviving fraction, item OCCN1CCN(CCCN2c3ccccc3Sc3ccc(C(F)(F)F)cc32)CC1 [Fluphenazine dihydrochloride]
## Result 1.05

## Task Given the entry "O=C(Oc1cccc2cccnc12)c1ccccc1" , what surviving fraction was observed with E28?
## Result 0.00427

## Task What value of surviving fraction on E28 does "COc1cc2c(c(OC)c1OC)-c1ccc(OC)c(=O)cc1[C@@H](NC(C)=O)CC2" have?
## Result 0.207

## Task # query: surviving fraction | item "CCn1cc(C(=O)O)c(=O)c2cc(F)c(N3CCNCC3)nc21" | system: E28
## Result 0.83

## Task Record lookup: for E28, what surviving fraction belongs to "CC(C)C[C@@H](C(=O)N[C@H](C(=O)OC1CCCC1)c1ccccc1)[C@H](O)C(=O)NO" ?
## Result 0.583

## Task Write down the reported surviving fraction of N=C(N)c1ccc(-c2ccc(-c3ccc(C(=N)N)cc3)o2)cc1 [Furamidine dihydrochloride] , test system: E28.
## Result 0.861

## Task Test system E28; read-out surviving fraction; what value for "COC(=O)C[C@](O)(CCCC(C)(C)O)C(=O)O[C@@H]1C(OC)=C[C@]23CCCN2CCc2cc4c(cc2[C@H]13)OCO4" ?
## Result 0.282
